The origin of these recorded values is ChEMBL document CHEMBL1122660.

experiment: Partition coefficient between 1-octanol and water containing phosphate buffer at pH 7.4; type: physicochemical; details: 1-octanol/water containing phosphate buffer
Known logD of a selection of compounds
API doc: respond with a numeric literal and nothing else, no unit.

Some solved entries appear below for comparison.
> print(dat)
                                   compound  observed.value
1  COC12[C@@H]3N[C@@H]3CN1C1=C(C(=O)C(Nc3cccc(O)c3)=C(C)C1=O)[C@@H]2COC(N)=O (some centres undefined)            0.63
2  COC12[C@@H]3N[C@@H]3CN1c1c(O)c(C)c(N=C3C=CC(=O)C=C3)c(O)c1[C@@H]2COC(N)=O (some centres undefined)            0.63
3  COC12[C@@H]3N[C@@H]3CN1C1=C(C(=O)C(Nc3cccc(N)c3)=C(C)C1=O)[C@@H]2COC(N)=O (some centres undefined)            0.07

Lab note: COC12[C@@H]3N[C@@H]3CN1C1=C(C(=O)C(Nc3ccc(C#N)cc3)=C(C)C1=O)[C@@H]2COC(N)=O (some centres undefined) gave logD of 0.72
